- Tested on: isolated ileal smooth muscle of guinea pigs
- assay explanation: Effect on muscle tone of isolated ileal smooth muscle of guinea pigs (no histamine added)
- condition: relative to tone before adding compound, X±s, n = 8, 5 min, 5 min
Recorded Antispasmodic percentage by entry
Hi! Could you send only the number? It should be in %, unit omitted.

Illustrative cases are given below, each with its answer.
1) O=C1Cc2ccccc2C(=C2CCN(CCOP(=O)(O)O)CC2)c2ccsc21 [Compound III-2]    28.82
2) O=C1Cc2ccccc2C(=C2CCN(CCCCOP(=O)(O)O)CC2)c2ccsc21 [Compound III-4]    32.55
3) O=C1Cc2ccccc2C(=C2CCN(CCCCCOCOP(=O)(O)O)CC2)c2ccsc21 [Compound III-9]    34.50

Now for another entry.
Request: // fetch isolated ileal smooth muscle of guinea pigs Antispasmodic percentage for O=C1Cc2ccccc2C(=C2CCN(CCOCOP(=O)(O)O)CC2)c2ccsc21 [Compound IV-6]
Response: 31.17

----------
- assay explanation: Accelerated stability test
- Assay type: physicochemical
- condition: storage 75% relative humidity; Month 6; 40°C ± 2°C, relative humidity 75% ± 5%; read-out: Content
observable: remaining at 4380 h (%)
Hi! Could you send only the number? It should be in %, unit omitted.

1. O=C1Cc2ccccc2C(=C2CCN(CCOCOP(=O)(O)O)CC2)c2ccsc21    99.4
2. O=C1Cc2ccccc2C(=C2CCN(CCCCOCOP(=O)(O)O)CC2)c2ccsc21    99.6

Request: Tell me the measured remaining at 4380 h of O=C1Cc2ccccc2C(=C2CCN(COP(=O)(O)O)CC2)c2ccsc21 , please.
Response: 99.4

Request: Tell me the measured remaining at 4380 h of O=C1Cc2ccccc2C(=C2CCN(CCOP(=O)(O)O)CC2)c2ccsc21 , please.
Response: 99.6

Request: Tell me the measured remaining at 4380 h of O=C1Cc2ccccc2C(=C2CCN(CCCOCOP(=O)(O)O)CC2)c2ccsc21 , please.
Response: 99.2

Request: Tell me the measured remaining at 4380 h of O=C1Cc2ccccc2C(=C2CCN(CCCCOP(=O)(O)O)CC2)c2ccsc21 , please.
Response: 99.4

Request: Tell me the measured remaining at 4380 h of O=C1Cc2ccccc2C(=C2CCN(CCCOP(=O)(O)O)CC2)c2ccsc21 , please.
Response: 99.2
